ASSAY_METHOD_TEXT: Binding to steroid hormone by UV spectroscopy
Method: UV spectroscopy in a crystal plate was used to investigate whether CAP has specificity for estrogen alone or whether it can bind to other naturally occurring hormones. […] Finally, the plate was incubated for 1 h and read in a Spectramax UV-VIS scanning spectrophotometer, spanning wavelengths from 190 to 400 nm. […] Because the solvent (1:1 solution of water–ethanol) was used as a control and subtracted from all wells, the resulting data reflected only the absorbances of the solute compounds. […]
MEASURED_PROPERTY: Binding (Kd) 5-Pregnan-3β-OL-2O-one

COc1cc(C(=O)O)ccc1O; No binding
CC(=O)Nc1ccc(O)cc1; No binding
COc1cc(CNC(=O)CCCC/C=C/C(C)C)ccc1O [Capsaicin, trans-8-methyl-N-vanillyl-6-nonenamide]; No binding
COc1cc(C=O)ccc1O; No binding

* * *

TARGET_OR_TEST_SYSTEM: insulin (human recombinant) (Homo sapiens, UniProt P01308)
Sequence (P01308 25-54 limits assumed): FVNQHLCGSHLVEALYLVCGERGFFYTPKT
Sequence (P01308 90-110 limits assumed): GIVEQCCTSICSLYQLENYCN
ASSAY_METHOD_TEXT: Binding to insulin by ultraviolet spectroscopy
CONDITION_DETAILS: binding constant to INS, UV spectroscopy
MEASURED_PROPERTY: Kd

Reported Kd, molecule COc1cc(CNC(=O)CCCC/C=C/C(C)C)ccc1O [Capsaicin, trans-8-methyl-N-vanillyl-6-nonenamide] : ____
~4 µM

* * *

TARGET_OR_TEST_SYSTEM: Estrogen receptor alpha (ER alpha) recombinant protein (ESR1) (Homo sapiens)
Sequence (P03372 whole entry): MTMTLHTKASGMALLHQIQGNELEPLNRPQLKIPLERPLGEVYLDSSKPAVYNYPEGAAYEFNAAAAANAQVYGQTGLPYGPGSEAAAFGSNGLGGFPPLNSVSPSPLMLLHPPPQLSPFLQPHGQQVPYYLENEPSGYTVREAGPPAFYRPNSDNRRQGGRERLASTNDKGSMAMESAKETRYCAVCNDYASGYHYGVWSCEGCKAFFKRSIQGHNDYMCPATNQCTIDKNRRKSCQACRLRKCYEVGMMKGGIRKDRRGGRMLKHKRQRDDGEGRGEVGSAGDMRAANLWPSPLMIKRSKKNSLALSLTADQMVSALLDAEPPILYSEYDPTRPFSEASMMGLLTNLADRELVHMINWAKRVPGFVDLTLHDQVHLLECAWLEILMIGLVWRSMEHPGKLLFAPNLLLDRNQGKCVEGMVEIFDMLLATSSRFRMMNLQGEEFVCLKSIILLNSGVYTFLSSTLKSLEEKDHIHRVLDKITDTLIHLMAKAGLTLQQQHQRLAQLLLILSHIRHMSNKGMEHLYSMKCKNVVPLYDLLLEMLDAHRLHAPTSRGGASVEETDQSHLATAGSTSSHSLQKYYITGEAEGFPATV
ASSAY_METHOD_TEXT: Binding to the estrogen receptor by ultraviolet spectroscopy
MEASURED_PROPERTY: Kd

Find Kd (Estrogen receptor alpha (ER alpha) recombinant protein (ESR1) (Homo sapiens)) for the entry COc1cc(CNC(=O)CCCC/C=C/C(C)C)ccc1O [Capsaicin, trans-8-methyl-N-vanillyl-6-nonenamide]
900 nM
